# Tested on: OVCAR-4
# measurementNotes: Cytotoxicity against human OVCAR4 cells after 48 hrs by SRB assay
# Type: functional
# cond: OVCAR-4, 48 h
GI50 vs 900 nM: less than gives TRUE; not less than gives FALSE.

// known answers, use as guide
1) Cc1ccc(C2CC(c3ccc(Nc4ccnc5cc(Cl)ccc45)cc3)=NN2C=O)cc1 (stereo not given) ... FALSE
2) COc1cc(C2CC(c3cccc(Nc4ccnc5cc(Cl)ccc45)c3)=NN2C=O)cc(OC)c1OC (stereo not given) ... FALSE
3) O=CN1N=C(c2ccc(Nc3ccnc4cc(Cl)ccc34)cc2)CC1c1ccc(Cl)cc1 (stereo not given) ... FALSE

Turning now to a further compound:
# input API: query returns whether the compound falls strictly under 900 nM in GI50. Query: O=CN1N=C(c2cccc(Nc3ccnc4cc(Cl)ccc34)c2)CC1c1ccccc1 (stereo not given)
# output TRUE

The measurements presented in this section are drawn from ChEMBL document CHEMBL2417469.
